- conditionLabel: in isopropanol, 318.15 K
measuredEndpoint: solubility (mole fraction)
Answers are plain numbers.

Given the compound "Cn1c(=O)cc(N2CCC[C@@H](N)C2)n(Cc2ccccc2C#N)c1=O.O=C(O)c1ccccc1" , what is its reported solubility (mole fraction)?
0.000334

* * *

- conditionLabel: in acetone, 278.15 K
measuredEndpoint: solubility (mole fraction)
Answers are plain numbers.

Look up solubility (mole fraction): "Cn1c(=O)cc(N2CCC[C@@H](N)C2)n(Cc2ccccc2C#N)c1=O.O=C(O)c1ccccc1"
0.00259

* * *

- conditionLabel: in n-propanol, 288.15 K
measuredEndpoint: solubility (mole fraction)
Numbers only.

Look at this compound and give its reported solubility (mole fraction). "Cn1c(=O)cc(N2CCC[C@@H](N)C2)n(Cc2ccccc2C#N)c1=O.O=C(O)c1ccccc1"
0.000113
